Just for reference, ChEMBL document CHEMBL4118097 is where these values come from.

Target: Receptor-type tyrosine-protein kinase FLT3 (Homo sapiens, UniProt P36888)
Sequence (P36888 whole entry, the tested form may be a part): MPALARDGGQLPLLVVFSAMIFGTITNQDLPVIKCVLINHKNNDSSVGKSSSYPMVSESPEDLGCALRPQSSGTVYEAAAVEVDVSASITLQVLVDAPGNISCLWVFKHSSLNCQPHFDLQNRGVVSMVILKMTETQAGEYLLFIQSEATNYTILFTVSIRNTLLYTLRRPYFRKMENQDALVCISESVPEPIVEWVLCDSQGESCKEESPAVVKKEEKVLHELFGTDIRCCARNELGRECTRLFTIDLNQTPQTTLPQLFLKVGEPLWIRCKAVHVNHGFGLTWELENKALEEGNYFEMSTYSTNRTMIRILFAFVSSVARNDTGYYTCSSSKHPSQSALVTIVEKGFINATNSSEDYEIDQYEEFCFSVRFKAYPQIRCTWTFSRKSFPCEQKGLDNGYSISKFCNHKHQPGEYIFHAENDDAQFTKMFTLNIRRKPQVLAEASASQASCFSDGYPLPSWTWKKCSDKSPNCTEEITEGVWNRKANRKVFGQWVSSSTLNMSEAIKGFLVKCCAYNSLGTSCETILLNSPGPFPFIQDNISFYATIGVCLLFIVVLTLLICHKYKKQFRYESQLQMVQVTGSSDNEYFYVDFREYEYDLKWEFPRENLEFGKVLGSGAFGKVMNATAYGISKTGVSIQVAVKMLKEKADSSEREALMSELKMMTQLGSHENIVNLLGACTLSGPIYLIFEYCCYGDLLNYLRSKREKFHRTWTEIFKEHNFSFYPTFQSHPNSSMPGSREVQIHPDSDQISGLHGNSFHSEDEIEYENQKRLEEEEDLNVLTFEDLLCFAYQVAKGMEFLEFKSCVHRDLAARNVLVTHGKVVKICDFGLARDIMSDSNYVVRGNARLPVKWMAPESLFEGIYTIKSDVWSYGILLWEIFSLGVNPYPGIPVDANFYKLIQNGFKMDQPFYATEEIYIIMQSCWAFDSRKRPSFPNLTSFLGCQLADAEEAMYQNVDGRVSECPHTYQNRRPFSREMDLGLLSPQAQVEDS
Assay: Inhibition of recombinant His-tagged human FLT3 cytoplasmic domain expressed in baculovirus expression system by FRET assay
Each entry below lists one item and its recorded IC50 value.
readout-name: IC50

# smiles, result
records = [
    ("Nc1ncc(-c2cc([C@H]3[C@@H]4CN(C5COC5)C[C@@H]43)n(CC3CC3)n2)cc1C(F)(F)F", "238 nM"),
    ("CC(C)n1nc(-c2cnc(N)c(OC(F)(F)F)c2)cc1[C@H]1[C@@H]2CN(C3COC3)C[C@@H]21", "709 nM"),
]

---

Each entry below lists one item and its recorded pIC50 value.
Target: Mitogen-activated protein kinase 8 (Homo sapiens)
Sequence (P45983 whole entry): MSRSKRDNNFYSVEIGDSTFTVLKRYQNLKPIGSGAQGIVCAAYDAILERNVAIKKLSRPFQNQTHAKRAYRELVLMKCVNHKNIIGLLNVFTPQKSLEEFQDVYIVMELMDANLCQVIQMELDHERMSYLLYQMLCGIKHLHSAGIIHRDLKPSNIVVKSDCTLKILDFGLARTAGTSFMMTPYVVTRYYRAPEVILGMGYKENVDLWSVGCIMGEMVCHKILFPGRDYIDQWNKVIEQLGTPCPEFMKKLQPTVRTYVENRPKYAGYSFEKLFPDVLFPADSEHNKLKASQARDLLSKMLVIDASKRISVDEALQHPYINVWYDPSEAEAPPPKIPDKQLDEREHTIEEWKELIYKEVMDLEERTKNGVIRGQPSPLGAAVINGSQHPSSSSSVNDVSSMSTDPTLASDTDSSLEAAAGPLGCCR
Test: Inhibition of recombinant full length His-tagged human JNK1alpha1 expressed in baculovirus expression system by FRET assay
pIC50: −log10 of the molar value.

# smiles, pIC50
records = [
    ("Nc1ncc(-c2cc([C@H]3[C@@H]4CN(C5COC5)C[C@@H]43)n(CC3CC3)n2)cc1C(F)(F)F", "< 5.00"),
    ("CC(C)n1nc(-c2cnc(N)c(OC(F)(F)F)c2)cc1[C@H]1[C@@H]2CN(C3COC3)C[C@@H]21", "< 5.00"),
]

---

Each entry below lists one item and its recorded pIC50 value.
Target: Mitogen-activated protein kinase 9 (Homo sapiens)
Sequence (P45984 whole entry): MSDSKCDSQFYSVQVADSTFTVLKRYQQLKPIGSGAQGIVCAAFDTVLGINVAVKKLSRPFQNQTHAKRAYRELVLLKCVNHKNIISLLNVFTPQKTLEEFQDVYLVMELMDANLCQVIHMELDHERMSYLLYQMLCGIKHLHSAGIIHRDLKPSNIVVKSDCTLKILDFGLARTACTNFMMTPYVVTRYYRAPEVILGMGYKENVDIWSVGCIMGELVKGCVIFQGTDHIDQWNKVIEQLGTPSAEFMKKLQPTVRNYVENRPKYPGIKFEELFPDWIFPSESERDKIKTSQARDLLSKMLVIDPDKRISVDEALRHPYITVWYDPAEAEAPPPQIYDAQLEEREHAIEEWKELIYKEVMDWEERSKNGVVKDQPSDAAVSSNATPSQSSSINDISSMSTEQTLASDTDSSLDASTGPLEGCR
Test: Inhibition of recombinant full length His-tagged human JNK2 ([…]) expressed in baculovirus expression system at by FRET assay
pIC50: −log10 of the molar value.
readout-name: pIC50

# smiles, system-tested, readout-name, result
rows = [
    ("Nc1ncc(-c2cc([C@H]3[C@@H]4CN(C5COC5)C[C@@H]43)n(CC3CC3)n2)cc1C(F)(F)F", "Mitogen-activated protein kinase 9 (Homo sapiens)", "pIC50", "< 5.00"),
    ("CC(C)n1nc(-c2cnc(N)c(OC(F)(F)F)c2)cc1[C@H]1[C@@H]2CN(C3COC3)C[C@@H]21", "Mitogen-activated protein kinase 9 (Homo sapiens)", "pIC50", "< 5.00"),
]

---

Target: Serine/threonine-protein kinase 16 (Homo sapiens)
Sequence (O75716 whole entry): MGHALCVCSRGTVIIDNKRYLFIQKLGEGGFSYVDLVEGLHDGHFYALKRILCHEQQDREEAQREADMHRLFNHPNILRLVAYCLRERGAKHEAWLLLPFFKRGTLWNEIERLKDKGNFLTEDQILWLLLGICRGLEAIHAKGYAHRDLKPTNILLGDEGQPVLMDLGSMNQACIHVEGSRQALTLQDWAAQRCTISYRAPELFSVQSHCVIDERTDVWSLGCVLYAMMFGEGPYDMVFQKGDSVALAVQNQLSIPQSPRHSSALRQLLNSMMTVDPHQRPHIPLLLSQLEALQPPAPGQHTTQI
Assay: Inhibition of recombinant full length His-tagged human STK16 expressed in baculovirus expression system by FRET assay

# smiles, system-tested, IC50 / nM
data = [
    ("CC(C)n1nc(-c2cnc(N)c(OC(F)(F)F)c2)cc1[C@H]1[C@@H]2CN(C3COC3)C[C@@H]21", "Serine/threonine-protein kinase 16 (Homo sapiens)", 1520),
]

---

Molecular target: Mitogen-activated protein kinase kinase kinase 12 (Homo sapiens, UniProt Q12852)
Sequence (Q12852 whole entry, the tested form may be a part): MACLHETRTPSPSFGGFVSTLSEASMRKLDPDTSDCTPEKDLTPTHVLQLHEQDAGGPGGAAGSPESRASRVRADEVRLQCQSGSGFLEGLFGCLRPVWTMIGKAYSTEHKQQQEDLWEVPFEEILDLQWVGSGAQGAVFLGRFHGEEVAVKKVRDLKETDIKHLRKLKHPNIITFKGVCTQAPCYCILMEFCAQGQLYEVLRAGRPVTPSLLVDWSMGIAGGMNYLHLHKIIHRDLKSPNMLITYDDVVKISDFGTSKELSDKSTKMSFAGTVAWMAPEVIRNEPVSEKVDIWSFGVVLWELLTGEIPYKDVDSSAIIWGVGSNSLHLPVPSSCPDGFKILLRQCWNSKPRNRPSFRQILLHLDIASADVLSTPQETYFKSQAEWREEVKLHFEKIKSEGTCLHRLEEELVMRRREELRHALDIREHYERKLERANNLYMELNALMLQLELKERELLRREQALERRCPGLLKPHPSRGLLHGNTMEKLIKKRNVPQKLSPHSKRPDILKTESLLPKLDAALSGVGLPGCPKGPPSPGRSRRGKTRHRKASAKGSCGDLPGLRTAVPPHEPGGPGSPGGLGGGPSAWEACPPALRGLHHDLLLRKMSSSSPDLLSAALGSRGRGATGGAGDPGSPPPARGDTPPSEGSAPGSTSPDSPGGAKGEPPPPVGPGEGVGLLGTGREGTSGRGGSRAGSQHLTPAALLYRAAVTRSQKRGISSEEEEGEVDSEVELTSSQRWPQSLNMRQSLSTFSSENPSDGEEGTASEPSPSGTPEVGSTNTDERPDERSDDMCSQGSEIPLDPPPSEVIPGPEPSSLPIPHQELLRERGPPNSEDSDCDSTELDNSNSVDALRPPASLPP
Assay: Binding affinity to N-terminally GST-tagged wild type human DLK (1 to 520 residues) expressed in sf21 insect cells using N-terminally His-tagged MKK4 K131M as substrate after 60 mins in presence of ATP by TR-FRET assay
Label Criterion met when Ki is strictly below 0.004 µM; otherwise label Criterion not met.

# smiles, system-tested, group-label
measured = [
    ("CC(C)(O)Cn1nc(-c2cnc(N)c(C(F)(F)F)c2)cc1[C@H]1[C@@H]2CN(C3COC3)C[C@@H]21", "Mitogen-activated protein kinase kinase kinase 12 (Homo sapiens, UniProt Q12852)", "Criterion not met"),
    ("Nc1ncc(-c2cc([C@H]3[C@@H]4CN(C5COC5)C[C@@H]43)n(CC(F)(F)F)n2)cc1C(F)(F)F", "Mitogen-activated protein kinase kinase kinase 12 (Homo sapiens, UniProt Q12852)", "Criterion not met"),
    ("Cc1cc(-c2cc(C3CCN(C4COC4)CC3)n(C(C)C)n2)cnc1N", "Mitogen-activated protein kinase kinase kinase 12 (Homo sapiens, UniProt Q12852)", "Criterion not met"),
    ("Cn1nc(-c2cnc(N)c(C(F)(F)F)c2)cc1[C@H]1[C@@H]2CN(C3COC3)C[C@@H]21", "Mitogen-activated protein kinase kinase kinase 12 (Homo sapiens, UniProt Q12852)", "Criterion not met"),
    ("CCn1nc(-c2cnc(N)c(C(F)(F)F)c2)cc1[C@H]1[C@@H]2CN(C3COC3)C[C@@H]21", "Mitogen-activated protein kinase kinase kinase 12 (Homo sapiens, UniProt Q12852)", "Criterion met"),
    ("Nc1ncc(-c2cc([C@H]3[C@@H]4CN(C5COC5)C[C@@H]43)n(CC3CC3)n2)cc1OC(F)(F)F", "Mitogen-activated protein kinase kinase kinase 12 (Homo sapiens, UniProt Q12852)", "Criterion met"),
]
